Species on record: Rattus norvegicus
test method notes: Open TG-GATES - Regimen: Daily Repeat
Type: toxicity, organism-based, Sprague-Dawley
Design: regimen Daily Repeat, gender Male, age 6 weeks
condition description: in vivo, po, 100 mg/kg, […], tissue Blood, route gavage, dose level Low, time 28 day
The following compounds are listed with their measured Ret values.
Please reply with the bare figure in % and do not write the unit itself.

{"compound": "CCN1CCCC1CNC(=O)c1cc(S(N)(=O)=O)ccc1OC (centres undefined) [SULPIRIDE]", "unit string": "%", "Ret": 2.2}
{"compound": "O=C(N[C@H](CO)[C@H](O)c1ccc([N+](=O)[O-])cc1)C(Cl)Cl [CHLORAMPHENICOL]", "unit string": "%", "Ret": 2.3}
{"compound": "CC(C)(S)[C@@H](N)C(=O)O [PENICILLAMINE]", "unit string": "%", "Ret": 2.2}

Now for the compound whose Ret we want.
Task item: Which Ret value belongs to O=C(O)c1cccnc1 [NIACIN] ?
Reply: 2.8

###

The following compounds are listed with their measured Fbg values.
Species: Rattus norvegicus
test method notes: Open TG-GATES - Regimen: Single
Assay type: toxicity, organism-based, Sprague-Dawley
Parameters: regimen Single, gender Male, age 6 weeks
condition description: in vivo, po, 0 mg/kg, 9 h, tissue Blood, route gavage, dose level Control
Please reply with the bare figure in mg/dL and do not write the unit itself.

Worked examples, 4 compounds total:
{"compound": "CC(C)C(=O)Nc1ccc([N+](=O)[O-])c(C(F)(F)F)c1 [FLUTAMIDE]", "quantity measured": "Fbg", "unit string": "mg/dL", "measurement": 209.2}
{"compound": "Nc1nc(N)c2nc(-c3ccccc3)c(N)nc2n1", "quantity measured": "Fbg", "unit string": "mg/dL", "measurement": 304.2}
{"compound": "C[C@]12CCC(=O)C=C1CC[C@@H]1[C@@H]2CC[C@@]2(C)[C@H]1CC[C@]2(C)O", "quantity measured": "Fbg", "unit string": "mg/dL", "measurement": 285.6}
{"compound": "CC(=O)Oc1cc(C(C)C)c(OCCN(C)C)cc1C", "quantity measured": "Fbg", "unit string": "mg/dL", "measurement": 295.6}

Now for the compound whose Fbg we want.
Task item: Which Fbg value belongs to CCC(C)(C)C(=O)O[C@H]1C[C@@H](C)C=C2C=C[C@H](C)[C@H](CC[C@@H]3C[C@@H](O)CC(=O)O3)[C@H]21 ?
Reply: 215.2

###

The following molecules are listed with their measured PL values.
Organism: Rattus norvegicus
test method notes: Open TG-GATES - Regimen: Daily Repeat
Type: toxicity, organism-based, Sprague-Dawley
Design: regimen Daily Repeat, gender Male, age 6 weeks
condition description: in vivo, po, 0 mg/kg, […], tissue Plasma, route gavage, dose level Control, time 28 day
Please reply with the bare figure in mg/dL and do not write the unit itself.

Worked examples, 5 molecules total:
{"molecule": "CC(=O)Oc1cc(C(C)C)c(OCCN(C)C)cc1C [MOXISYLYTE]", "PL (mg/dL)": 134.2}
{"molecule": "Nc1nc(N)c2nc(-c3ccccc3)c(N)nc2n1", "PL (mg/dL)": 144.8}
{"molecule": "CN1C(=O)OC(C)(C)C1=O [TRIMETHADIONE]", "PL (mg/dL)": 159.8}
{"molecule": "C[C@](N)(Cc1ccc(O)c(O)c1)C(=O)O [METHYLDOPA]", "PL (mg/dL)": 167.8}
{"molecule": "CCN1CCCC1CNC(=O)c1cc(S(N)(=O)=O)ccc1OC (stereo unspecified) [SULPIRIDE]", "PL (mg/dL)": 147}

Task item: Which PL value belongs to Oc1ncnc2[nH]ncc12 [ALLOPURINOL] ?
Reply: 146.2

Task item: Which PL value belongs to CC(C)(S)[C@@H](N)C(=O)O [PENICILLAMINE] ?
Reply: 147.4

Task item: Which PL value belongs to CCC(C)(C)C(=O)O[C@H]1C[C@@H](C)C=C2C=C[C@H](C)[C@H](CC[C@@H]3C[C@@H](O)CC(=O)O3)[C@H]21 [SIMVASTATIN] ?
Reply: 147.8

Task item: Which PL value belongs to CCSCC[C@H](N)C(=O)O [ETHIONINE] ?
Reply: 145.8

Task item: Which PL value belongs to O=C(N[C@H](CO)[C@H](O)c1ccc([N+](=O)[O-])cc1)C(Cl)Cl [CHLORAMPHENICOL] ?
Reply: 141.4

Task item: Which PL value belongs to C#C[C@]1(O)CC[C@H]2[C@@H]3CCc4cc(O)ccc4[C@H]3CC[C@@]21C [ETHINYL ESTRADIOL] ?
Reply: 155.8

Task item: Which PL value belongs to CCc1oc2ccccc2c1C(=O)c1cc(I)c(O)c(I)c1 [BENZIODARONE] ?
Reply: 135

// provenance: ChEMBL document CHEMBL3885861
